All values here come from patent US20150272939A1.

# System Under Test: JARID1B (Homo sapiens)
# Construct: The FLAG tagged full length JARID1B enzyme was expressed in Sf21 insect cells using FLAG-JARID1B baculoviruses; FLAG (N); made in house; host or cells: Sf21 insect cells (baculovirus)
# Sequence (Q9UGL1 whole entry): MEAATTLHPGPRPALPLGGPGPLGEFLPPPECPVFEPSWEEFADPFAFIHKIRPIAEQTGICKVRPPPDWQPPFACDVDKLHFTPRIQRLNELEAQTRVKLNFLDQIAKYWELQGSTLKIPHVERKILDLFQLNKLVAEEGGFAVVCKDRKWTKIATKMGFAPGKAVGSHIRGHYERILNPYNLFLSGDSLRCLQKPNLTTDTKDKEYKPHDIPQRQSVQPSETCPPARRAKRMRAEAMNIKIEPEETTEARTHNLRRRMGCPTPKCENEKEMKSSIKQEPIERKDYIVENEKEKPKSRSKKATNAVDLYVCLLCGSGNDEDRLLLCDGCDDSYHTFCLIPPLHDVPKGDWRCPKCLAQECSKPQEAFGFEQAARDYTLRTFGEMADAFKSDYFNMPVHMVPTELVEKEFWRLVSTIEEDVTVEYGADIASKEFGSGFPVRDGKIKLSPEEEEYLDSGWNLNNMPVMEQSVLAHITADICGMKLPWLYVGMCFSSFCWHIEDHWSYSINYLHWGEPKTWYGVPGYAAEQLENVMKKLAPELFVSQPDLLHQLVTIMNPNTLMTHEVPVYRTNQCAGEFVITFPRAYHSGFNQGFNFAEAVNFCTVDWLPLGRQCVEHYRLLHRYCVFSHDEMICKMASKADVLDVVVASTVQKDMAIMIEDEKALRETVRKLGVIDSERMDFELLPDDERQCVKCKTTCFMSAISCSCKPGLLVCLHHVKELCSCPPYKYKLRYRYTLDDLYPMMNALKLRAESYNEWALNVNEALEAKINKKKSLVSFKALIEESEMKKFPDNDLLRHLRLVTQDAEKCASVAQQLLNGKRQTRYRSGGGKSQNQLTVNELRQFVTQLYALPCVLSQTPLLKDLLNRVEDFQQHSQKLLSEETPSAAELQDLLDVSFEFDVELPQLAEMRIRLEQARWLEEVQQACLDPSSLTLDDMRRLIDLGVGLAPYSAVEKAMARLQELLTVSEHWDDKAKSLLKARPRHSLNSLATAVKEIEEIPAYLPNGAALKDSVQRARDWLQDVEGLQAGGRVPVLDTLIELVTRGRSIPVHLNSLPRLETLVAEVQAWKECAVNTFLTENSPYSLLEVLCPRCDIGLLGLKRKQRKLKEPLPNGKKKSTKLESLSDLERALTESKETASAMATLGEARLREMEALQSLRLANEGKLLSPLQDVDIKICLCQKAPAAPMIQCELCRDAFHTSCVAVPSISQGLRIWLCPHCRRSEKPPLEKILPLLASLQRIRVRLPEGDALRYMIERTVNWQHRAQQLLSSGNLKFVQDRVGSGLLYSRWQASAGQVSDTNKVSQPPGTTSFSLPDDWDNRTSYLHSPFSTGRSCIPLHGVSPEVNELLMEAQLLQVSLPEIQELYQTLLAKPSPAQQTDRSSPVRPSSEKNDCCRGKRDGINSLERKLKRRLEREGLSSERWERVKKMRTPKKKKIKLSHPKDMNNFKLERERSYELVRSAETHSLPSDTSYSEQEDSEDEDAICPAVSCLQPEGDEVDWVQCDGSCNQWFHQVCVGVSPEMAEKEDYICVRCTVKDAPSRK
# Protocol Details: FLAG-JARID1B histone demethylase assay with AlphaScreen detection (HTS and dose response);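 also: FLAG-tagged JARID1B at 4 nM acting on a biotinylated H3K4me3 peptide, demethylation read by AlphaScreen luminescence, with hits checked against bio-H3K4me2 without enzyme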
# Type: biochemical
# Measurement Conditions: high-throughput screen, compound 20 μM, standard demethylase conditions (10 μM α-KG, 50 μM Fe (II)); read-out: Inhibitory effect (percent)
Returns 1 if the recorded inhibition at 20 µM is greater than or equal to 60%, and 0 otherwise.

Compound | Cat
O=C(NC1=NC(=O)C(F)(C(F)(F)F)S1)NC1CCCCC1 (stereo not drawn) | 0
O=C(O)CSc1nc2cc(F)c(N3CCOCC3)cc2[nH]1 | 0
O=C(O)c1cc(NCc2cc(O)ccc2O)ccc1O [YU154859, reference compound] | 0
Oc1cc(O)c2c(c1)O[C@H](c1cc(O)c(O)c(O)c1)[C@H](O)C2 [YU155087, EPIGALLOCATECHIN, reference compound] | 0
Cc1cccc(NC(c2ccncc2)c2ccc3cccnc3c2O)c1 (stereo not drawn) | 1
COc1c(O)cc2c(c1O)[C@@H]1O[C@H](CO)[C@@H](O)[C@H](O)[C@H]1OC2=O [YU155621, BERGENIN, reference compound] | 1
O=Cc1ccc(-c2ccc(S(=O)(=O)O)cc2)o1 | 0
CC(=O)Nc1ccc(N2CCC(C(N)=O)(N3CCCCC3)CC2)c(C(=O)O)c1 | 0
Cl.Oc1cc2c(cc1O)[C@H]1c3ccccc3CN[C@@H]1CC2 [YU221065, reference compound] | 0
Cc1ccc(NC(c2cccnc2)c2ccc3cccnc3c2O)cc1C (stereo not drawn) | 0
C[C@@H]1O[C@@H](OC[C@H]2OC(OC3=C(c4ccc(O)c(O)c4)Oc4cc(O)cc(O)c4C3O)[C@H](O)[C@@H](O)[C@@H]2O)[C@H](O)[C@H](O)[C@H]1O (stereo partly drawn) [YU033654, RUTOSIDE (rutin), reference compound] | 1
O=C(O[C@@H]1Cc2c(O)cc(O)cc2O[C@@H]1c1cc(O)c(O)c(O)c1)c1cc(O)c(O)c(O)c1 [YU040338, Epigallocatechin gallate, reference compound] | 1
O=C(O)c1cc(O)c2c(c1)[C@H]([C@H]1c3cc(C(=O)O)cc(O)c3C(=O)c3c(O[C@@H]4O[C@H](CO)[C@H](O)[C@H](O)[C@H]4O)cccc31)c1cccc(O[C@@H]3O[C@H](CO)[C@H](O)[C@H](O)[C@@H]3O)c1C2=O (stereo in doubt) [YU155305, SENNOSIDE B, reference compound] | 1
Cn1cnc([N+](=O)[O-])c1Sc1[nH]cnc2ncnc1-2 [YU033698, AZATHIOPRINE, reference compound] | 1
O=c1c(O)c(-c2cc(O)c(O)c(O)c2)oc2cc(O)cc(O)c12 [YU155300, MYRICETIN, reference compound] | 1
CC(NC(=S)Nc1ccc2c(c1)OCO2)c1ccncc1 (stereo not drawn) | 0
COc1ccc(CNn2c(C)nnc2S)cc1 | 0
C=CCn1c(-c2cccc(OC)c2OC)n[nH]c1=S | 0
Cl.Cn1cccc1CNCc1ccncc1 | 1
Cc1cc(C(=O)Nc2cccc(Cn3cccn3)c2)cs1 | 0
